Tested on: ΔCTD_Reg1 (human Regnase-1 amino acids 1 to 546, FLAG tag on the N-terminal side, BirA recognition sequence … (human))
Sequence (Q5D1E8 1-546, stated change not applied): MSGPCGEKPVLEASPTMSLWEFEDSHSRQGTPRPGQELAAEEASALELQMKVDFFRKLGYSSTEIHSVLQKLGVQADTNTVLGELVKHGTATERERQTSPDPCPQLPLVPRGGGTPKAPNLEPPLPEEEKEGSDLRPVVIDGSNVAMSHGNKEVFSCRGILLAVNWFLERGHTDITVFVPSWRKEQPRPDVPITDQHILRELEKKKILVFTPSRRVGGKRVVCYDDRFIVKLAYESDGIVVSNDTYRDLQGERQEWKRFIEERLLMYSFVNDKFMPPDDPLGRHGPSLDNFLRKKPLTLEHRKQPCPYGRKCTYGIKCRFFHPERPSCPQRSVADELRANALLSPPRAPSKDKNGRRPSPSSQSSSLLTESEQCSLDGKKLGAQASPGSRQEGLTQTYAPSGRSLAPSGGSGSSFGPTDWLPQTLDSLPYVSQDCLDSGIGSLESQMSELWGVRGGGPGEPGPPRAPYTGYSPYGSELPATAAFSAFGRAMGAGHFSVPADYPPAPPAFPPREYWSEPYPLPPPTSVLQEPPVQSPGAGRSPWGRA
Method description: cell-based or functional assay
Positions of bridges follow the written chain, without caps; N, C: chain ends. Non-standard residues stand in square brackets, D forms with d. No end group written: not given here. NMeA = CN[C@@H](C)C(=O)O
Property measured: IC50, phosphorylation by IKKβ (µM)
The reply should contain only the number, in µM.

Tell us which IC50, phosphorylation by IKKβ value is on record for [NMeA]HSNAWYNIWD (lactam N-11) [PP5] 20.4

Item [NMeA]NSWYRIWGLD (lactam N-11) [PP22] : provide IC50, phosphorylation by IKKβ 34

Give recorded IC50, phosphorylation by IKKβ. [NMeA]RFRQWKWVYPD (lactam N-12) [PP13] 43.2

Respond only with IC50, phosphorylation by IKKβ recorded for [NMeA]NFNSAYYRAIWD (lactam N-13) [PP7] 4.5
